System: HepG2
Protocol Text: cell viability relative to DMSO; higher = less toxic
Condition Notes: 72 h; 1000 nM

# Compound, cell viability
data = [
    ("NC(=O)[C@@H](CCC(F)(F)F)N(Cc1ccc(-c2ncon2)cc1F)S(=O)(=O)c1ccc(Cl)cc1", "105%"),
    ("CCOC(=O)C1=C(COCCN)NC(C)=C(C(=O)OC)C1c1ccccc1Cl (stereo not given)", "99.2%"),
    ("O=C(Oc1ccccc1)c1ccccc1O [phenyl-salicylate]", "110%"),
    ("COc1ccccc1OCCNCC(O)COc1cccc2[nH]c3ccccc3c12 (stereo not given)", "100%"),
    ("CCN(CC)CCOCCOC(=O)C1(c2ccccc2)CCCC1", "97.5%"),
]
